Reference source for all entries: ChEMBL document CHEMBL1641437

Overview of reported Ki across a group of molecules:
- SYSTEM_NAME: Furin (Homo sapiens, UniProt P09958)
- Sequence (P09958 whole entry): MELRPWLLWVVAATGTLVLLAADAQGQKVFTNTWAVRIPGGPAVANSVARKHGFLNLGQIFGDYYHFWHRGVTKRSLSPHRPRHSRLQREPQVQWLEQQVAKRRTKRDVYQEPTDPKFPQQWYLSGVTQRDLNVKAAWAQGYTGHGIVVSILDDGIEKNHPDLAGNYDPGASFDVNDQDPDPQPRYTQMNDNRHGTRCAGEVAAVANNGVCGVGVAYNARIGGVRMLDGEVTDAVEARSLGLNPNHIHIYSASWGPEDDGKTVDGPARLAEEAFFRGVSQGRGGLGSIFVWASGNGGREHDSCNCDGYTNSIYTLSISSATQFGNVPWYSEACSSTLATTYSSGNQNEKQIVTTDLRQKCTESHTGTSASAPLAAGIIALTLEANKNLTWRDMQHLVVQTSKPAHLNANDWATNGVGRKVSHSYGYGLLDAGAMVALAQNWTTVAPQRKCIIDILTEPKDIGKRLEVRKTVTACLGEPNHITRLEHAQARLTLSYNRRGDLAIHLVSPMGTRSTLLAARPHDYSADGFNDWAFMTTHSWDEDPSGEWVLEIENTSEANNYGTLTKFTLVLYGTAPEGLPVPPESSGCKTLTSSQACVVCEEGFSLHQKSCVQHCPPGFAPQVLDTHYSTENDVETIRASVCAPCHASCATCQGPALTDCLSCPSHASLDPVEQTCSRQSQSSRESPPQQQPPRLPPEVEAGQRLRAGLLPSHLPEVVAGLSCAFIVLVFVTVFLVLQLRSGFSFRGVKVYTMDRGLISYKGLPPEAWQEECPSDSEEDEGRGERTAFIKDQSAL
- TEST_PROTOCOL: Inhibition of human recombinant furin by fluorescence plate reader analysis
The response must be a number in nM with no trailing unit.

Solved entries:
INSERT INTO assay_data (structure_as_smiles, measured_number) VALUES
  ('N=C(N)N/N=C1\C/C(=N\NC(=N)N)c2ccccc21', 17300),
  ('C/C(=N\NC(=N)N)c1ccccc1', 273000),
  ('C/C(=N/NC(=N)N)c1cc(OCC(=O)Nc2ccccc2)cc(/C(C)=N\NC(=N)N)c1', 1350),
  ('N=C(N)N/N=C/c1ccc(/C=N/NC(=N)N)cc1', 1470),
  ('N=C(N)NNC(=O)c1ccccc1', 376000),
  ('C/C(=N\NC(=N)N)c1cc(NC(=O)[C@H](N)CCCNC(=N)N)cc(/C(C)=N/NC(=N)N)c1', 1130),
  ('C/C(=N\NC(=N)N)c1cccc(/C(C)=N/NC(=N)N)c1', 4780),
  ('C/C(=N\NC(=N)N)c1cc(NC(=O)CCCN)cc(/C(C)=N/NC(=N)N)c1', 1200);

Q: What reported Ki corresponds to C/C(=N\NC(=N)N)c1cc(NC(=O)CCCNC(=N)N)cc(/C(C)=N/NC(=N)N)c1 on Furin (Homo sapiens, UniProt P09958)?
A: 460

Q: Hello, I am looking for reported Ki with Furin (Homo sapiens, UniProt P09958) for N=C(N)NNC(=O)c1cccc(C(=O)NNC(=N)N)c1 . Could you help?
A: 27900

Q: Request - read-out Ki | tested on Furin (Homo sapiens, UniProt P09958) | molecule C/C(=N\NC(=N)N)c1cc(N)cc(/C(C)=N/NC(=N)N)c1
A: 1820

Q: Query the reported Ki for Furin (Homo sapiens, UniProt P09958); item: C/C(=N/NC(=N)N)c1cc(NC(=O)COc2ccc(/C(C)=N/NC(=N)N)cc2)cc(/C(C)=N/NC(=N)N)c1
A: 1940

Q: Can you look up Ki on Furin (Homo sapiens, UniProt P09958) for C/C(=N\NC(=N)N)c1cc(NC(=O)CCCCNC(=N)N)cc(/C(C)=N/NC(=N)N)c1 ?
A: 1040
